compounds and their reported drug sensitivity score
tested on: DLD1 NRF2-WT; test: drug sensitivity score (DSS) cytotoxicity (DSS score); higher = more toxic; extreme values may be limits of the assay; settings: 72 h; CellTox Green cytotoxicity
READOUT: drug sensitivity score

Cc1cc([C@@H](C)Nc2ccccc2C(=O)O)c2nc(N3CCOCC3)cc(=O)n2c1; 0
Nc1ccn([C@@H]2O[C@H](CO)[C@@H](O)C2(F)F)c(=O)n1; 0
Cc1cc(F)c(C(=O)Nc2cccc(-c3nncn3C(C)C)n2)cc1-n1cnc(C2CC2)c1; 0
CN(C)Cc1ccc(S(=O)(=O)n2ccc(/C=C/C(=O)NO)c2)cc1; 0
NS(=O)(=O)NCCNc1nonc1/C(=N/O)Nc1ccc(F)c(Br)c1; 0
Cn1cncc1[C@@](N)(c1ccc(Cl)cc1)c1ccc2c(c1)c(-c1cccc(Cl)c1)cc(=O)n2C; 0
CN1CC[C@@H](NC(=O)Nc2ccc(C#N)cc2)C[C@@H]1c1nc2ccccc2[nH]1; 0
FC(F)c1nc2ccccc2n1-c1nc(N2CCOCC2)nc(N2CCOCC2)n1; 0
N#CC1(c2ccc(NC(=O)c3cccnc3NCc3ccncc3)cc2)CCCC1; 0
CC1(COc2ccc3c(c2)ncn3-c2ccc3cccc(N4CCC(N)CC4)c3n2)COC1; 4.3
CNC(=O)c1ccccc1Nc1nc(Nc2ccc3c(c2OC)CCC[C@H](N2CCN(CCO)CC2)C3)ncc1Cl; 3
CC(C)C(=O)Nc1ccc([N+](=O)[O-])c(C(F)(F)F)c1 [Flutamide]; 0
Cc1sc2c(c1C)C(c1ccc(Cl)cc1)=N[C@@H](CC(=O)Nc1ccc(O)cc1)c1nnc(C)n1-2; 0
COC(=O)N[C@@H](C)CNc1nccc(-c2cn(C(C)C)nc2-c2cc(Cl)cc(NS(C)(=O)=O)c2F)n1; 0
CC(=O)O[C@H]1C(=O)[C@@]2(C)[C@H]([C@H](OC(=O)c3ccccc3)[C@]3(O)C[C@H](OC(=O)[C@H](O)[C@@H](NC(=O)c4ccccc4)c4ccccc4)C(C)=C1C3(C)C)[C@]1(OC(C)=O)CO[C@@H]1C[C@@H]2O; 10.5
Cc1ccc(C(=O)Nc2cccc(C(F)(F)F)c2)cc1Nc1nc(-c2cccnc2)nc2c1cnn2C; 0

###

test system: DLD1 NRF2-WT; experiment: drug sensitivity score (DSS) cytotoxicity (DSS score); higher = more toxic; extreme values may be limits of the assay; conditions: 72 h; CellTox Green cytotoxicity
READOUT: drug sensitivity score

FC(F)(F)c1ccc(/C=C/c2nc(COc3ccc(CCCCn4ccnn4)cc3)co2)cc1; 0
O=C(/C=C/c1cccc(S(=O)(=O)Nc2ccccc2)c1)NO; 2.6
Cc1ccc(C(=O)N(CCCN)[C@@H](c2oc3cc(Cl)ccc3c(=O)c2Cc2ccccc2)C(C)C)cc1; 2.8
Cc1c2oc3c(C)ccc(C(=O)N[C@@H]4C(=O)N[C@H](C(C)C)C(=O)N5CCC[C@H]5C(=O)N(C)CC(=O)N(C)[C@@H](C(C)C)C(=O)O[C@@H]4C)c3nc-2c(C(=O)N[C@@H]2C(=O)N[C@H](C(C)C)C(=O)N3CCC[C@H]3C(=O)N(C)CC(=O)N(C)[C@@H](C(C)C)C(=O)O[C@@H]2C)c(N)c1=O; 1.4
CNC(=O)c1ccccc1Sc1ccc2c(/C=C/c3ccccn3)n[nH]c2c1; 0.3
Cn1nccc1Nc1nccc(-c2ccn([C@H](CO)c3ccc(Cl)c(F)c3)c(=O)c2)n1; 0
O=C(NC1CCNCC1)c1n[nH]cc1NC(=O)c1c(Cl)cccc1Cl; 0
CO[C@H]1CC[C@H](N2C(=O)CNc3ncc(-c4ccc(C(C)(C)O)nc4)nc32)CC1; 0
CCN(CC)CCN(Cc1ccc(-c2ccc(C(F)(F)F)cc2)cc1)C(=O)Cn1c(SCc2ccc(F)cc2)nc(=O)c2c1CCC2; 0
Nc1ncnc2c1c(-c1cccc(OCc3ccccc3)c1)cn2[C@H]1C[C@@H](CN2CCC2)C1; 0.1
CNS(=O)(=O)Nc1nccc(Cc2c(C)c3ccc(Oc4ncccn4)cc3oc2=O)c1F; 0
CS(=O)(=O)c1ccc(-c2cnc(N)c(C(=O)Nc3ccccc3)n2)cc1; 0
COc1cc(C)[nH]c(=O)c1CNC(=O)c1c(C)n([C@H](C)C2CCOCC2)c2ccccc12; 0
CC1(C)OCCn2c1nc1c(N3CCOCC3)nc(-c3cnc(N)nc3)nc12; 1.1
O=c1[nH]cc(F)c(=O)[nH]1; 0
C[C@@]1(C(=O)Nc2ccc(F)nc2)CCCN1c1nc(Nc2cc(C3CC3)n[nH]2)c2cccn2n1; 6.3

###

Measured drug sensitivity score values are reported for all entries that follow.
tested on: DLD1 NRF2-GOF; experiment: drug sensitivity score (DSS) cytotoxicity (DSS score); higher = more toxic; extreme values may be limits of the assay; details: 72 h; CellTox Green cytotoxicity
READOUT: drug sensitivity score

CCS(=O)(=O)N1CC(CC#N)(n2cc(-c3ncnc4[nH]ccc34)cn2)C1; 0
COc1cc(OC)cc(N(CCNC(C)C)c2ccc3ncc(-c4cnn(C)c4)nc3c2)c1; 0
O=c1[nH]c(C2CCCN2)nc2c1oc1ccc(Cl)cc12 (configuration not stated); 0
C[C@@H]1CN(C(=O)c2ccc(NC(=O)c3cc(O[C@H](C)c4c(Cl)ccc(F)c4Cl)c(N)nn3)cc2)C[C@H](C)N1; 0.2
CC[C@@H]1C(=O)OC[C@@H]1Cc1cncn1C; 0
CCS(=O)(=O)N1CCN(c2ccc(Nc3ncc(C(N)=O)c(NC4CC4)n3)cc2)CC1; 0
CN1CCN(C2CCC(n3cc(-c4ccc(Oc5ccccc5)cc4)c4c(N)ncnc43)CC2)CC1 (configuration not stated); 5.3
Clc1ccc(C(c2ccccc2Cl)C(Cl)Cl)cc1 (configuration not stated); 0
COc1cc(Nc2ncc(F)c(Nc3ccc4c(n3)NC(=O)C(C)(C)O4)n2)cc(OC)c1OC; 0
Cc1ccc(NC(=O)c2ccc(CN3CCN(C)CC3)cc2)cc1Nc1nccc(-c2cccnc2)n1; 0
CCN(CC)CCCC(C)Nc1c2ccc(Cl)cc2nc2ccc(OC)cc12 (configuration not stated); 9.9
C=CC(=O)Nc1cc(Nc2nccc(-c3cn(C)c4ccccc34)n2)c(OC)cc1N(C)CCN(C)C; 0
O=C(Nc1ccc(OC(F)(F)Cl)cc1)c1cnc(N2CC[C@@H](O)C2)c(-c2cc[nH]n2)c1; 0
CC#CC(=O)N1CC[C@@H](n2c(=O)n(-c3ccc(Oc4ccccc4)cc3)c3c(N)ncnc32)C1; 0
CC(=O)c1cnc2ccc(-c3cc(Cl)c(O)c(Cl)c3)nc2c1N[C@H]1CC[C@H](CN(C)C)CC1; 3
O=C(CCCCCCC(=O)Nc1ccccc1)NO; 0
Nc1ccccc1NC(=O)c1ccc(CNC(=O)OCc2cccnc2)cc1; 0

###

test system: DLD1 NRF2-WT; settings: 72 h; CellTiter-Glo viability
The label criterion met is reserved for EC50 viability strictly under 300 nM; criterion not met covers values equal to or above it.

COc1ccc(-c2nc(N3CCOCC3)c3sc(CN(C)c4ncc(C(=O)NO)cn4)cc3n2)cn1; criterion met
O=c1[nH]c(=O)n([C@H]2C[C@H](O)[C@@H](CO)O2)cc1C(F)(F)F; criterion not met
CNC(=O)c1ccc(C)c(-n2c(C)cc(OCc3ccc(F)cc3F)c(Br)c2=O)c1; criterion not met
CC(=O)O[C@]1(C(C)=O)CC[C@H]2[C@@H]3C=C(C)C4=CC(=O)CC[C@]4(C)[C@H]3CC[C@@]21C [Megestrol acetate]; criterion not met
COC(=O)C[C@](O)(CCCC(C)(C)O)C(=O)O[C@@H]1C(OC)=C[C@]23CCCN2CCc2cc4c(cc2[C@H]13)OCO4; criterion met
CO[C@H]1CC[C@H](N2C(=O)CNc3ncc(-c4ccc(C(C)(C)O)nc4)nc32)CC1; criterion not met
Nc1ccccc1NC(=O)c1ccc(CNC(=O)OCc2cccnc2)cc1; criterion not met
Nc1nc(F)nc2c1ncn2[C@@H]1O[C@H](CO)[C@@H](O)[C@@H]1O; criterion not met
CC1(C)NC(=O)N(c2ccc([N+](=O)[O-])c(C(F)(F)F)c2)C1=O [Nilutamide]; criterion not met
COC[C@H](NC(=O)c1cnc(C)s1)C(=O)N[C@@H](COC)C(=O)N[C@@H](Cc1ccccc1)C(=O)[C@@]1(C)CO1; criterion met
Cc1cc(Nc2cc(N3CCN(C)CC3)nc(/C=C/c3ccccc3)n2)n[nH]1; criterion not met
CCCCCCCCc1ccc(CCC(N)(CO)CO)cc1; criterion not met
Nc1cc(C(F)(F)F)c(-c2cc(N3CCOCC3)nc(N3CCOCC3)n2)cn1; criterion not met
CN1CCN(CCOc2cc(OC3CCOCC3)c3c(Nc4c(Cl)ccc5c4OCO5)ncnc3c2)CC1; criterion not met
CC1=C(/C=C/C(C)=C/C=C/C(C)=C/C(=O)O)C(C)(C)CCC1; criterion met
CC1(C)CCC(c2ccc(Cl)cc2)=C(CN2CCN(c3ccc(C(=O)NS(=O)(=O)c4ccc(N[C@H](CCN5CCOCC5)CSc5ccccc5)c(S(=O)(=O)C(F)(F)F)c4)cc3)CC2)C1; criterion not met
CCc1cnn2c(NCc3ccc[n+]([O-])c3)cc(N3CCCC[C@H]3CCO)nc12; criterion met
COc1ccc(S(=O)(=O)Nc2cccnc2Nc2ccc(O)cc2)cc1; criterion met
Cn1cncc1[C@@](N)(c1ccc(Cl)cc1)c1ccc2c(c1)c(-c1cccc(Cl)c1)cc(=O)n2C; criterion met
CN(C)C/C=C/C(=O)Nc1cc2c(Nc3ccc(F)c(Cl)c3)ncnc2cc1O[C@H]1CCOC1; criterion met
COC12C(COC(N)=O)C3=C(C(=O)C(C)=C(N)C3=O)N1CC1NC12 (stereo in doubt); criterion not met
C[C@@]1(C(=O)Nc2ccc(F)nc2)CCCN1c1nc(Nc2cc(C3CC3)n[nH]2)c2cccn2n1; criterion met
CN1CCN(c2nc(C3=C(c4c[nH]c5ccccc45)C(=O)NC3=O)c3ccccc3n2)CC1; criterion not met
COc1cc2c(Oc3ccc(NC(=O)C4(C(=O)Nc5ccc(F)cc5)CC4)cc3F)ccnc2cc1OCCCN1CCOCC1; criterion not met
Nc1nc(N)c2nc(-c3cccc(O)c3)c(-c3cccc(O)c3)nc2n1; criterion met
N#Cc1ccnc(N2C(=O)CC[C@H]2C(=O)N(c2cncc(F)c2)[C@H](C(=O)NC2CC(F)(F)C2)c2ccccc2Cl)c1; criterion not met
Cc1cccc(-c2[nH]c(CNc3ccccc3F)nc2-c2ccc3ncnn3c2)n1; criterion not met
C=CCn1c(=O)c2cnc(Nc3ccc(N4CCN(C)CC4)cc3)nc2n1-c1cccc(C(C)(C)O)n1; criterion not met
CC#CC(=O)N1CCC[C@H]1c1nc(-c2ccc(C(=O)Nc3ccccn3)cc2)c2c(N)nccn12; criterion met
